Known POST Application SETFA herbicidal damage (five point scale) of a selection of molecules
# System: Setaria faberi (SETFA)
# Assay Protocol: Post-emergence herbicidal glasshouse test on Setaria faberi
# Assay type: in vivo
# Conditions: post-emergence; 1000 g/h; evaluated after 13 days
# Description: Seeds of a variety of test species are sown in standard soil in pots (Alopecurus myosuroides (ALOMY), Setaria faberi (SETFA), Echinochloa crus-galli (ECHCG), Solanum nigrum (SOLNI), Amaranthus retoflexus (AMARE), Ipomoea hederacea (IPOHE)). […] After 13 days for pre and post-emergence, the test is evaluated for the percentage herbicidal damage caused to the plant. […]

Smiles Str	Value
Cc1c(-c2cnn(C(C)C)c(=O)c2O)ccc(S(C)(=O)=O)c1C1=NOCC1	5 (5=80-100% damage)
Cn1ncc(-c2c(Cl)cccc2Cl)c(O)c1=O	1 (1=0-19% damage)
CC(C)n1ncc(-c2c(Cl)cccc2Cl)c(O)c1=O	3 (3=40-59% damage)
CCSC(=O)Oc1c(-c2ccc(C(F)(F)F)cc2S(C)(=O)=O)cnn(C)c1=O	5 (5=80-100% damage)

In the following, a different molecule is considered.
Request: # query: POST Application SETFA herbicidal damage (five point scale) | item Cn1ncc(-n2ccc(C(F)(F)F)c(-c3cccc(F)c3)c2=O)c(O)c1=O | system: Setaria faberi (SETFA)
Response: 5 (5=80-100% damage)

* * *

Known PRE Application AMARE herbicidal damage (five point scale) of a selection of compounds
# Tested on: Amaranthus retoflexus (AMARE)
# Assay Protocol: Pre-emergence herbicidal glasshouse test on Amaranthus retoflexus
# Format: in vivo
# Conditions: pre-emergence; 1000 g/h; evaluated after 13 days

Worked cases, PRE Application AMARE herbicidal damage (five point scale) given:
Smiles Str	Value
CN(C)c1c(Cl)ccc(-c2cnn(C)c(=O)c2O)c1F	1 (1=0-19% damage)
Cc1ccn(-c2cnn(C)c(=O)c2O)c(=O)c1	5 (5=80-100% damage)
Cn1ncc(-c2ccc(C(F)(F)F)cc2S(=O)(=O)N2CCOCC2)c(O)c1=O	5 (5=80-100% damage)
CCn1ncc(-c2cc3cccnc3nc2C(F)(F)F)c(O)c1=O	5 (5=80-100% damage)

In the following, a different compound is considered.
Request: Returns the measured PRE Application AMARE herbicidal damage (five point scale) for the input compound. Input: CCS(=O)(=O)c1nn(C)c(=O)c(O)c1-c1ccc(S(C)(=O)=O)c(C2=NOCC2)c1C
Response: 5 (5=80-100% damage)

* * *

Known PRE Application IPOHE herbicidal damage (five point scale) of a selection of compounds
# Tested on: Ipomoea hederacea (IPOHE)
# Assay Protocol: Pre-emergence herbicidal glasshouse test on Ipomoea hederacea
# Type: in vivo
# Conditions: pre-emergence; 1000 g/h; evaluated after 13 days

Compound	Value
C#Cn1ncc(-c2ccc(C(F)(F)F)cc2S(C)(=O)=O)c(O)c1=O	5 (5=80-100% damage)

Request: Returns the measured PRE Application IPOHE herbicidal damage (five point scale) for the input compound. Input: O=c1c(O)c(-c2ccc(C(F)(F)F)cc2C(F)(F)F)cnn1C(F)F
Response: 3 (3=40-59% damage)

Request: Lookup CC(C)N(C)S(=O)(=O)c1ccc(-c2cnn(C)c(=O)c2O)c(S(C)(=O)=O)c1
Response: 4 (4=60-79% damage)

Request: Lookup CCn1ncc(-c2cc3cccnc3nc2C(F)(F)F)c(O)c1=O
Response: 5 (5=80-100% damage)

* * *

# System: Ipomoea hederacea (IPOHE)
# Assay Protocol: Pre-emergence herbicidal glasshouse test on Ipomoea hederacea
# Format: in vivo
# Conditions: pre-emergence; 1000 g/h; evaluated after 13 days
Measurement Type: PRE Application IPOHE herbicidal damage (five point scale)

Worked cases, PRE Application IPOHE herbicidal damage (five point scale) given:
Compound	Value
COCc1nc(C(F)(F)F)ccc1-c1cnn(C)c(=O)c1O [Compound 1.073]	2 (2=20-39% damage)
COc1ccc(C(C)C)cc1-c1c(C(F)(F)F)ccn(-c2cnn(C)c(=O)c2O)c1=O [Compound 7.015]	4 (4=60-79% damage)
CC(C)(C)n1ncc(-c2c(Cl)cccc2Cl)c(O)c1=O [Compound 1.133]	1 (1=0-19% damage)

Request: Returns the measured PRE Application IPOHE herbicidal damage (five point scale) for the input compound. Input: Cn1ncc(-n2ccc(C(F)(F)F)c(-c3ccc([N+](=O)[O-])cc3)c2=O)c(O)c1=O [Compound 7.009]
Response: 4 (4=60-79% damage)

* * *

Known PRE Application AMARE herbicidal damage (five point scale) of a selection of molecules
# Test system: Amaranthus retoflexus (AMARE)
# Assay Protocol: Pre-emergence herbicidal glasshouse test on Amaranthus retoflexus
# Assay type: in vivo
# Conditions: pre-emergence; 1000 g/h; evaluated after 13 days

Worked cases, PRE Application AMARE herbicidal damage (five point scale) given:
Smiles Str	Subject Of Test	Value
Cn1ncc(-c2cccn(-c3cccc(F)c3)c2=O)c(O)c1=O	Amaranthus retoflexus (AMARE)	1 (1=0-19% damage)
Cn1ncc(-c2ccc(S(C)(=O)=O)cc2S(C)(=O)=O)c(O)c1=O	Amaranthus retoflexus (AMARE)	5 (5=80-100% damage)

Request: # query: PRE Application AMARE herbicidal damage (five point scale) | item Cn1ncc(-c2ccccc2C(F)(F)F)c(O)c1=O | system: Amaranthus retoflexus (AMARE)
Response: 5 (5=80-100% damage)

Request: Lookup Cc1ccc(S(=O)(=O)Oc2c(-c3ccc(C(F)(F)F)cc3S(C)(=O)=O)cnn(C)c2=O)cc1
Response: 5 (5=80-100% damage)

Request: Lookup Cn1ncc(-c2ccc(SCc3ccccc3)cc2S(C)(=O)=O)c(O)c1=O
Response: 5 (5=80-100% damage)

Request: Lookup Cn1ncc(-c2ccc(COCC(F)(F)F)cc2S(C)(=O)=O)c(O)c1=O
Response: 5 (5=80-100% damage)

Request: Lookup Cc1ccc(Cl)c(-c2c(C(F)(F)F)ccn(-c3cnn(C)c(=O)c3O)c2=O)c1
Response: 5 (5=80-100% damage)

* * *

# Test system: Setaria faberi (SETFA)
# Assay Protocol: Post-emergence herbicidal glasshouse test on Setaria faberi
# Type: in vivo
# Conditions: post-emergence; 1000 g/h; evaluated after 13 days
Known POST Application SETFA herbicidal damage (five point scale) of a selection of compounds

Compound	Value
Cn1ncc(-c2cccn(-c3cccc([N+](=O)[O-])c3)c2=O)c(O)c1=O [Compound 1.147]	1 (1=0-19% damage)
CC(C)c1cccc(-c2c(C(F)(F)F)ccn(-c3cnn(C)c(=O)c3O)c2=O)c1 [Compound 7.014]	4 (4=60-79% damage)
Cn1ncc(-c2cccn(-c3cccc(C#N)c3)c2=O)c(O)c1=O [Compound 1.138]	5 (5=80-100% damage)
Cn1ncc(-c2cccn(-c3cccc(Cl)c3)c2=O)c(O)c1=O [Compound 1.143]	1 (1=0-19% damage)
Cn1ncc(-c2c(Br)cccc2S(C)(=O)=O)c(O)c1=O [Compound 1.106]	2 (2=20-39% damage)

Request: Returns the measured POST Application SETFA herbicidal damage (five point scale) for the input compound. Input: Cc1cc(-c2cnn(C)c(=O)c2O)c(C)c2c1S(=O)(=O)CCC21OCCO1 [Compound 1.031]
Response: 5 (5=80-100% damage)

Request: Lookup COc1ccc(C(C)C)cc1-c1c(C(F)(F)F)ccn(-c2cnn(C)c(=O)c2O)c1=O [Compound 7.015]
Response: 3 (3=40-59% damage)

Request: Lookup Cn1nc(N)c(-c2ccc(C(F)(F)F)cc2S(C)(=O)=O)c(O)c1=O [Compound 2.039]
Response: 5 (5=80-100% damage)

Request: Lookup Cn1ncc(-c2ccc(C(F)(F)F)nc2N2CCOCC2)c(O)c1=O [Compound 1.075]
Response: 2 (2=20-39% damage)

Request: Lookup CC(C)(C)n1ncc(-c2c(Cl)cccc2Cl)c(O)c1=O [Compound 1.133]
Response: 1 (1=0-19% damage)

Request: Lookup CCn1ncc(-c2cc3cccnc3nc2C(F)(F)F)c(O)c1=O [Compound 5.001]
Response: 5 (5=80-100% damage)

Request: Lookup Cn1ncc(-c2ccc(Cl)cc2Cl)c(O)c1=O [Compound 1.077]
Response: 1 (1=0-19% damage)

* * *

Known POST Application SETFA herbicidal damage (five point scale) of a selection of compounds
# System: Setaria faberi (SETFA)
# Assay Protocol: Post-emergence herbicidal glasshouse test on Setaria faberi
# Assay type: in vivo
# Conditions: post-emergence; 1000 g/h; evaluated after 13 days

Request: # query: POST Application SETFA herbicidal damage (five point scale) | item CCS(=O)(=O)c1nn(C)c(=O)c(O)c1-c1ccc(S(C)(=O)=O)c(C2=NOCC2)c1C | system: Setaria faberi (SETFA)
Response: 2 (2=20-39% damage)

Request: Lookup Cn1ncc(-c2cc3cc(F)cnc3n(-c3ccsc3)c2=O)c(O)c1=O
Response: 5 (5=80-100% damage)

Request: Lookup Cn1ncc(-c2cccnc2OCC(F)F)c(O)c1=O
Response: 1 (1=0-19% damage)

Request: Lookup COc1ccc(-c2c(C(F)(F)F)ccn(-c3cnn(C)c(=O)c3O)c2=O)cc1
Response: 5 (5=80-100% damage)

Request: Lookup Cn1ncc(-c2cc(C(F)(F)F)ccc2F)c(O)c1=O
Response: 1 (1=0-19% damage)

Request: Lookup COc1nn(C)c(=O)c(O)c1-c1ccc(C(F)(F)F)cc1S(C)(=O)=O
Response: 5 (5=80-100% damage)

Request: Lookup COCn1ncc(-c2ccc(C(F)(F)F)cc2[S+](C)[O-])c(O)c1=O (stereo not drawn)
Response: 5 (5=80-100% damage)

Request: Lookup CS(=O)(=O)c1cc(C(F)(F)F)ccc1-c1cnn(C2CC2)c(=O)c1O
Response: 5 (5=80-100% damage)

Request: Lookup Cn1ncc(-c2ccc(C(F)(F)F)cc2[S+](C)[O-])c(O)c1=O (stereo not drawn)
Response: 5 (5=80-100% damage)

Request: Lookup Cc1nc(C(C)F)ccc1-c1cnn(C)c(=O)c1O (stereo not drawn)
Response: 3 (3=40-59% damage)

Request: Lookup Cc1ccc(Cl)c(-c2c(C(F)(F)F)ccn(-c3cnn(C)c(=O)c3O)c2=O)c1
Response: 5 (5=80-100% damage)

Request: Lookup Cn1ncc(-c2ccc(C(F)(F)F)cc2Cl)c(O)c1=O
Response: 1 (1=0-19% damage)

Request: Lookup Cn1ncc(-n2cccc(-c3ccc(C(F)(F)F)cc3)c2=O)c(O)c1=O
Response: 3 (3=40-59% damage)

Request: Lookup Cn1ncc(-c2ccc(C#N)cc2S(C)(=O)=O)c(O)c1=O
Response: 5 (5=80-100% damage)

Request: Lookup Cn1cccc(-c2cnn(C)c(=O)c2O)c1=O
Response: 2 (2=20-39% damage)

Request: Lookup CC(C)OCc1ccc(-c2cnn(C)c(=O)c2O)c(S(C)(=O)=O)c1
Response: 4 (4=60-79% damage)

Request: Lookup CC(C)N(C)S(=O)(=O)c1ccc(-c2cnn(C)c(=O)c2O)c(S(C)(=O)=O)c1
Response: 5 (5=80-100% damage)

Request: Lookup Cn1ncc(-c2ccc(C#N)cc2C(F)(F)F)c(O)c1=O
Response: 4 (4=60-79% damage)
